Tested on: Colo205
Test name: Proliferation inhibition, Wnt mutant cell line Colo205
Assay type: cell-based
Condition info: Homo sapiens, COLO 205; Colo205, Wnt pathway-dependent, 96 hours; read-out: Antiproliferative IC50 Colo205
compounds and their reported log10(IC50)
Hi team, quick reminder: these entries are log10 of IC50 (nM).

For orientation, consider the following solved cases.
COCCC1C(=O)N2CCCc3nc(NCc4ccc(Oc5cnc(C(F)(F)F)nc5)nc4)nc(c32)N1C (stereo not drawn) ... 1.78
CCn1nc(C(F)(F)F)c(C2CC2)c1Oc1ccc(CNc2nc3c4c(n2)N(C)[C@@](C)(CO)C(=O)N4CCC3)cn1 ... 1.72

Q: Need log10(IC50), item C[C@H]1C(=O)N2CCCc3nc(NCc4cnn(CCCC(F)(F)F)c4)nc(c32)N1C
Ans: 1.95

====

IC50 by entry:
System: Colo205
Test name: Proliferation inhibition, Wnt mutant cell line Colo205
Type: cell-based
Condition info: Homo sapiens, COLO 205; Colo205, Wnt pathway-dependent, 96 hours; read-out: Antiproliferative IC50 Colo205
Enter your answer as a number in nM; do not include the unit.

CC(C)N1c2nc(NCc3ccc(Oc4cnc(C(F)(F)F)nc4)nc3)nc3c2N(CCC3)C(=O)[C@@H]1C [170 (W368)] ... 7
C[C@H]1Cn2ccc3nc(NCc4cnn(CCCC(F)(F)F)c4)nc(c32)N1C [81 (W105)] ... 33.4

Q: Query (molecule): CO[C@H](C)[C@H]1C(=O)N2CCCc3nc(NCc4ccc(Oc5ccc(C(F)(F)F)nc5)nc4)nc(c32)N1C [114 (W243)] ; field requested: IC50
Ans: 23

Q: If you can, please state the reported IC50 value of C[C@@H](O)[C@H]1C(=O)N2CCCc3nc(NCc4ccc(Oc5cc(C(F)(F)F)nn5C5CC5)nc4)nc(c32)N1C [206 (W388)] .
Ans: 10

Q: Reported IC50 for CN1c2nc(NCc3ccc(Oc4ccc(C(F)(F)F)nc4)nc3)nc3c2N(CCC3)C(=O)[C@@H]1CC(F)(F)F [190 (W317)] : what is it?
Ans: 7.9

Q: Any idea what IC50 was measured for CN1c2nc(NCc3ccc(Oc4cnc(C(F)(F)F)nc4)nc3)nc3c2N(CCC3)C(=O)[C@@H]1CC(F)(F)F [199 (W319)] ?
Ans: 6.9

====

Tested on: Colo205
Test name: Proliferation inhibition, Wnt mutant cell line Colo205
Assay type: cell-based
Condition info: Homo sapiens, COLO 205; Colo205, Wnt pathway-dependent, 96 hours; read-out: Antiproliferative IC50 Colo205
Reported pIC50 values for a set of compounds
Note: pIC50 values are expressed as the negative base-10 logarithm of concentration in M.

A selection of reference data follows.
[2H]C([2H])([2H])OC[C@@]1(C)C(=O)N2CCCc3nc(NCc4ccc(Oc5ccc(C(F)(F)F)nc5)nc4)nc(c32)N1C([2H])([2H])[2H] ... 7.96
[2H]C([2H])([2H])N1c2nc(NCc3ccc(Oc4cnc(C(F)(F)F)nc4)nc3)nc3c2N(CCC3)C(=O)[C@@H]1CC ... 8.31

Q: Dear colleague, I am looking for the recorded pIC50 of the following compound: CN1c2nc(NCc3ccc(Oc4ccc(C(F)(F)F)nc4)nc3)nc3c2N(CCC3)C(=O)C1CC(F)(F)F (stereo not shown)
Ans: 8.07

Q: Any idea what pIC50 was measured for CN1c2nc(NCc3ccc(Oc4cnc(C(F)(F)F)nc4)nc3)nc3c2N(CCC3)C(=O)[C@@H]1C(C)(C)O ?
Ans: 7.37

Q: Requested field: pIC50. Item: C[C@H](O)[C@@]1(C)C(=O)N2CCCc3nc(NCc4ccc(Oc5cnc(C(F)(F)F)nc5)nc4)nc(c32)N1C
Ans: 7.95

Q: Look up pIC50 for this compound: C[C@H]1CN(C)c2nc(NCc3cnn(Cc4ccc(C(F)(F)F)nc4)c3)nc3cc(C(F)F)n1c23
Ans: 7.01

Q: # get_value(readout='pIC50', item= COCC[C@H]1C(=O)N2CCCc3nc(NCc4ccc(Oc5ccc(C(F)(F)F)nc5)nc4)nc(c32)N1C )
Ans: 7.47

====

Test system: Colo205
Test name: Proliferation inhibition, Wnt mutant cell line Colo205
Assay type: cell-based
Condition info: Homo sapiens, COLO 205; Colo205, Wnt pathway-dependent, 96 hours; read-out: Antiproliferative IC50 Colo205
Reported metric: IC50 (nM)
Kindly provide the numeric value in nM only, without the unit symbol.

[2H]C([2H])([2H])N1c2nc(NCc3ccc(Oc4cnc(C(F)(F)F)nc4)nc3)nc3c2N(CCC3)C(=O)[C@@H]1C1CC1 ... 12

Q: # input compound: C[C@H]1C(=O)N2CCCc3nc(NCc4ccc(Cn5ccc(C(F)(F)F)n5)nc4)nc(c32)N1C ; wanted: its IC50
Ans: 81

Q: # input compound: CCN1c2nc(NCc3ccc(Oc4cc(C(F)(F)F)nn4C)nc3)nc3c2N(CCC3)C(=O)[C@@H]1C ; wanted: its IC50
Ans: 21

Q: Quick one: IC50 for CN1c2nc(NCc3ccc(Oc4cnc(C(F)(F)F)nc4)nc3)nc3c2N(CCC3)C(=O)[C@@H]1C(C)(C)F ?
Ans: 11

====

Tested on: Colo205
Test name: Proliferation inhibition, Wnt mutant cell line Colo205
Type: cell-based
Condition info: Homo sapiens, COLO 205; Colo205, Wnt pathway-dependent, 96 hours; read-out: Antiproliferative IC50 Colo205
The entries below are paired with their reported pIC50.
Convention used: pIC50 is expressed as -log10 of the molar concentration.

See these solved cases before continuing.
[2H]C([2H])([2H])N1c2nc(NCc3ccc(Oc4cnc(C(F)(F)F)nc4)nc3)nc3c2N(CCC3)C(=O)[C@@H]1CC(F)(F)F ... 8.85
C[C@H]1CCn2ccc3nc(NCc4cnn(Cc5ccc(F)cc5)c4)nc(c32)N1C ... 7.84

Q: Requested read-out: pIC50. Entry: CN1c2nc(NCc3ccc(Oc4cnc(C(F)(F)F)nc4)nc3)nc3c2N(CCC3)C(=O)[C@]12CCOC2
Ans: 7.24

Q: Query: pIC50; subject: Cc1cc(CNc2nc3c4c(n2)N(C)[C@@H](C)C(=O)N4CCC3)cnc1Oc1ccc(C(F)(F)F)nc1
Ans: 7.72

Q: Quick check: pIC50 of CN1c2nc(NCc3ccc(Oc4ccc(C(F)(F)F)nc4)nc3)nc3c2N(CCC3)C(=O)[C@@H]1C1CC1 ?
Ans: 8.11

Q: pIC50 lookup needed for O=C1[C@@H]2CCCN2c2nc(NCc3ccc(Oc4cnc(C(F)(F)F)nc4)nc3)nc3c2N1CCC3 , thanks.
Ans: 7.51

Q: Request the reported pIC50 associated with C[C@H]1C(=O)N2CCCc3nc(NCc4cnn(Cc5cc(C(F)(F)F)nn5C5CC5)c4)nc(c32)N1C
Ans: 7.38

====

Tested on: Colo205
Test name: Proliferation inhibition, Wnt mutant cell line Colo205
Type: cell-based
Condition info: Homo sapiens, COLO 205; Colo205, Wnt pathway-dependent, 96 hours; read-out: Antiproliferative IC50 Colo205
Reported metric: log10 of IC50 (log10 of the value in nM)
Would you kindly interpret these values as log10 of IC50 expressed in nM?

CN1c2nc(NCc3ccc(Oc4ccc(C(F)(F)F)nc4)nc3)nc3c2N(CCC3)C(=O)[C@@H]1c1ccccc1 ... 1.32
CN1c2nc(NCc3cnn(CC(F)(F)F)c3)nc3ccn(c23)CC1(C)C ... 1.61
COCC[C@H]1C(=O)N2CCCc3nc(NCc4ccc(Oc5cnc(C(F)(F)F)nc5)nc4)nc(c32)N1C ... 1.36

Q: Suppose we examine the molecule CN1c2nc(NCc3cnn(Cc4ccc(C(F)(F)F)nc4)c3)nc3ccn(c23)CC1CC(F)(F)F (stereo not drawn) ; what log10 of IC50 value has been reported?
Ans: 0.83

Q: So what does the record say about log10 of IC50 for COC[C@@]1(C)C(=O)N2CCCc3nc(NCc4ccc(Oc5cnc(C(F)(F)F)nc5)nc4)nc(c32)N1C ?
Ans: 1.16

Q: Given the entry CN1c2nc(NCc3ccc(Oc4ccc(C(F)(F)F)nc4)nc3)nc3c2N(CCC3)C(=O)C12CCOCC2 , report its measured log10 of IC50.
Ans: 1.59

Q: // query log10 of IC50 value for entry C[C@H]1Cn2ccc3nc(NCc4cnn(Cc5ccc(C(F)(F)F)nc5)c4)nc(c32)N1CC(F)(F)F
Ans: 1.12

Q: Consider the molecule shown here: CN1c2nc(NCc3ccc(Oc4cc(C(F)(F)F)nn4C4CCOC4)nc3)nc3c2N(CCC3)C(=O)[C@]1(C)CO (stereo partly drawn) What is its recorded log10 of IC50?
Ans: 1.71

Q: I am curious: what log10 of IC50 value has been reported for O=C1[C@@H]2CCCN2c2nc(NCc3ccc(Oc4ccc(C(F)(F)F)nc4)nc3)nc3c2N1CCC3 ?
Ans: 1.30
